- Test system: E. coli ATCC 25922
- METHOD DESCRIPTION: Antibiotic interaction assay (Wimley), 2/3 broth microdilution: MIC alone, MIC of combination, FICI
- Assay type: cell-based
- STATED CONDITIONS: labelled drug + KL-L9P
READOUT LABEL: FICIantibiotic

MOLECULE: CC(C)Cc1ccc([C@H](C)C(=O)O)cc1 [(S)-ibuprofen]
TARGET DESC: E. coli ATCC 25922
FICIantibiotic: 0.03
--
MOLECULE: CC[C@H](C)C(=O)O[C@H]1C[C@@H](C)C=C2C=C[C@H](C)[C@H](CC[C@@H]3C[C@@H](O)CC(=O)O3)[C@H]21 [lovastatin]
TARGET DESC: E. coli ATCC 25922
FICIantibiotic: 0.10

input: # value lookup — system E. coli ATCC 25922, readout FICIantibiotic, item CC(C)c1c(C(=O)Nc2ccccc2)c(-c2ccccc2)c(-c2ccc(F)cc2)n1CC[C@@H](O)C[C@@H](O)CC(=O)O [atorvastatin]
output: 0.22

input: Now try CC(C)Cc1ccc([C@@H](C)C(=O)O)cc1 [(R)-ibuprofen] .
output: 0.05

input: Now try Oc1ccc(C=Cc2cc(O)cc(O)c2)cc1 [resveratrol] .
output: 0.14

input: Now try O=c1c(O)c(-c2ccc(O)c(O)c2)oc2cc(O)cc(O)c12 [quercetin] .
output: 0.01

input: Now try COc1cc(/C=C/C(=O)CC(=O)/C=C/c2ccc(O)c(OC)c2)ccc1O [curcumin] .
output: 0.20

input: Now try COc1ccc2cc3[n+](cc2c1OC)CCc1cc2c(cc1-3)OCO2 [berberine] .
output: 0.92

input: Now try CCC(C)(C)C(=O)O[C@H]1C[C@@H](C)C=C2C=C[C@H](C)[C@H](CC[C@@H]3C[C@@H](O)CC(=O)O3)[C@H]21 [simvastatin] .
output: 0.07
